targetSystem: human recombinant 5-HT2Cedited receptor (Homo sapiens, UniProt P28335, I156V/I160V/N158S)
Sequence (P28335 33-458 I156V/N158S/I160V limits assumed): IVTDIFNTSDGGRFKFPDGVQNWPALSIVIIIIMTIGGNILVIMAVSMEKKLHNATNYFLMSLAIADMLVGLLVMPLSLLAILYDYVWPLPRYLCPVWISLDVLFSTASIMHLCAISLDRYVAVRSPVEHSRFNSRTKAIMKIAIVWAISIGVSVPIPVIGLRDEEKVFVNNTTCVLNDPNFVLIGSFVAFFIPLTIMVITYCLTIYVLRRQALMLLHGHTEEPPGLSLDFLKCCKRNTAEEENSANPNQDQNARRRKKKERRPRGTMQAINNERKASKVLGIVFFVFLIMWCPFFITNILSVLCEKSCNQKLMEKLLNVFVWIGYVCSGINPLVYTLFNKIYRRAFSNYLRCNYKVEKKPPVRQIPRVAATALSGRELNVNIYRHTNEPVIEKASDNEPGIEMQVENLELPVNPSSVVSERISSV
testDescription: cell-based
// reported EC50 for each item listed
resultType: EC50

INSERT INTO measurements (molecule, resulttype, endpointresult) VALUES
  ('C[C@@H](N)Cn1ccc2cc(OCc3cccc(F)c3)ccc21 [Compound 6]', 'EC50', '1 to 10 µM'),
  ('C[C@H](Cn1ccc2cc(OCc3ccccc3)ccc21)N(C)C [Compound 3]', 'EC50', '1 to 10 µM'),
  ('CCN(CC)[C@H](C)Cn1ccc2cc(OCc3ccccc3)ccc21 [Compound 11]', 'EC50', '> 10 µM'),
  ('C[C@@H](N)Cn1ccc2cc(OCc3ccccc3F)ccc21 [Compound 7]', 'EC50', '1 to 10 µM'),
  ('CN[C@H](C)Cn1ccc2cc(OCc3ccccc3)ccc21 [Compound 4]', 'EC50', '1 to 10 µM'),
  ('C[C@H](Cn1ccc2cc(OCc3ccccc3F)ccc21)N(C)C [Compound 10]', 'EC50', '> 10 µM'),
  ('C[C@@H](N)Cn1ccc2cc(OCc3ccc(F)cc3)ccc21 [Compound 5]', 'EC50', '1 to 10 µM'),
  ('C[C@H](Cn1ccc2cc(OCc3cccc(F)c3)ccc21)N(C)C [Compound 9]', 'EC50', '> 10 µM'),
  ('C[C@H](Cn1ccc2nc(OCc3ccccc3)ccc21)N(C)C [Compound 1]', 'EC50', '> 10 µM'),
  ('C[C@H](Cn1ccc2cc(OCc3ccc(F)cc3)ccc21)N(C)C [Compound 8]', 'EC50', '> 10 µM'),
  ('C[C@H](Cn1ccc2cc(OCc3ccccc3)ccc21)N1CCCC1 [Compound 12]', 'EC50', '> 10 µM'),
  ('C[C@@H](N)Cn1ccc2nc(OCc3ccccc3)ccc21 [Compound 2]', 'EC50', '> 10 µM');

* * *

targetSystem: 5-HT2Cedited (accession number AAF35842.1) (Homo sapiens, UniProt P28335, I156V/I160V/N158S)
Sequence (P28335 whole entry I156V/N158S/I160V, looked up): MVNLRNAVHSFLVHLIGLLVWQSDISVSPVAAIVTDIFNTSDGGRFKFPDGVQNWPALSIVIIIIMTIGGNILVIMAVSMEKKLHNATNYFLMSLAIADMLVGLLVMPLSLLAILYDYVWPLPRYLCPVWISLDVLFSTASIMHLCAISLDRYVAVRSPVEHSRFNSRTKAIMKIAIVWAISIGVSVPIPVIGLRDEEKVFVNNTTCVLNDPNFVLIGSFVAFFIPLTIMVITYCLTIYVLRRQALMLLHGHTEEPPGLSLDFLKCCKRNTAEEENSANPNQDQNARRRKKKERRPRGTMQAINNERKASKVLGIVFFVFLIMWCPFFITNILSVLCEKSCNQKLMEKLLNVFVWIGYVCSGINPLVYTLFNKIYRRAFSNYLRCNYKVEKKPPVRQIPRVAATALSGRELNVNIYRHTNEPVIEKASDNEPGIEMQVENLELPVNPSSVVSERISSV
testDescription: biochemical
Parameter: IC50. Scope: all listed entries.
resultType: IC50

INSERT INTO results (compoundstructure, endpointresult) VALUES
  ('C[C@H](Cn1ccc2cc(OCc3ccccc3F)ccc21)N(C)C', '101 to 1000 nM'),
  ('C[C@H](Cn1ccc2cc(OCc3ccccc3)ccc21)N(C)C', '101 to 1000 nM'),
  ('C[C@H](Cn1ccc2cc(OCc3cccc(F)c3)ccc21)N(C)C', '101 to 1000 nM'),
  ('CCN(CC)[C@H](C)Cn1ccc2cc(OCc3ccccc3)ccc21', '1000 to 10000 nM'),
  ('C[C@H](Cn1ccc2cc(OCc3ccccc3)ccc21)N1CCCC1', '1000 to 10000 nM'),
  ('C[C@@H](N)Cn1ccc2cc(OCc3ccccc3F)ccc21', '1000 to 10000 nM'),
  ('CN[C@H](C)Cn1ccc2cc(OCc3ccccc3)ccc21', '1000 to 10000 nM'),
  ('C[C@H](Cn1ccc2cc(OCc3ccc(F)cc3)ccc21)N(C)C', '101 to 1000 nM'),
  ('C[C@@H](N)Cn1ccc2nc(OCc3ccccc3)ccc21', '> 10000 nM'),
  ('C[C@@H](N)Cn1ccc2cc(OCc3cccc(F)c3)ccc21', '101 to 1000 nM'),
  ('C[C@H](Cn1ccc2nc(OCc3ccccc3)ccc21)N(C)C', '1000 to 10000 nM'),
  ('C[C@@H](N)Cn1ccc2cc(OCc3ccc(F)cc3)ccc21', '101 to 1000 nM');
